Just for reference, ChEMBL document CHEMBL1961873 is where these values come from.

target: Rhodopsin kinase GRK7 (Homo sapiens) (UniProt Q8WTQ7); conditions: at 1 µM;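 further: mean percent inhibition of GRK7, profiled as part of the GSK PKIS screen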
Sequence (Q8WTQ7 whole entry): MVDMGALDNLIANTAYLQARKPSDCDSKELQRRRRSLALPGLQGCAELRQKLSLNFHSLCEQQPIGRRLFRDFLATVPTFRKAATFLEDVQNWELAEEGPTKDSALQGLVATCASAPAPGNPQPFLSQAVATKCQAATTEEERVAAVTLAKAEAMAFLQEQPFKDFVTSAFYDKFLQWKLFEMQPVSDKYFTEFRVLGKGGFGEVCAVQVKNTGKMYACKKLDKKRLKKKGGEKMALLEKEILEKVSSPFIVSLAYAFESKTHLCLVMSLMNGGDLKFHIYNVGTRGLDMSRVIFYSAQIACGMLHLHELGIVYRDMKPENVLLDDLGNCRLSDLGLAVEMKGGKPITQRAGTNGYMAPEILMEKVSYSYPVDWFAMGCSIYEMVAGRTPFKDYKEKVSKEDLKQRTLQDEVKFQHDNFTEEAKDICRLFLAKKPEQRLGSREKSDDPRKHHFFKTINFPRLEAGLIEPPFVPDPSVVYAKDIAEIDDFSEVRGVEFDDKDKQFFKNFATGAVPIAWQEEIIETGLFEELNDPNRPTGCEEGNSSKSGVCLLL
observable: inhibition (%)
Give the value, in units of %, as a plain number.

Respond only with inhibition recorded for Cc1cc(O)cc(C)c1/C=C/c1cncc(C(N)=O)c1
-1.37

Respond only with inhibition recorded for COC(=O)Nc1nc2cc(Oc3ccc(NC(=O)Nc4ccccc4)cc3)ccc2[nH]1
15.2

* * *

Below: a set of entries, each annotated with reported inhibition.
target: cAMP-dependent protein kinase catalytic subunit alpha (Homo sapiens) (UniProt P17612); conditions: at 0.1 µM
Give the value, in units of %, as a plain number.

Cn1c(-c2nonc2N)nc2cnccc21 ... 2.05

// fetch inhibition for O=C(O[C@H]1CN[C@H](C#Cc2cc3ncnc(Nc4ccc5c(cnn5Cc5ccccc5)c4)c3s2)C1)N1CCOCC1 ; system: cAMP-dependent protein kinase catalytic subunit alpha (Homo sapiens) (UniProt P17612)
0.31

// fetch inhibition for c1ccc(-c2n[nH]cc2-c2ccnc(-c3ccc(OCCn4ccnc4)cc3)c2)nc1 ; system: cAMP-dependent protein kinase catalytic subunit alpha (Homo sapiens) (UniProt P17612);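 further: reported value is the mean percent inhibition of PKA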
0.39
